Test: HUVEC growth inhibition – cell-based, human, primary screen (AID 575);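 also: 100% = median of untreated cell wells with 0.1% DMSO on each plate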
Details: HUVEC proliferation, CellTiter-Glo luminescence, 72 h; at 10 µM; active compounds read low
I'd be grateful if you could share measured viability for these entries.
Numbers only, in %.

compound	viability (%)
Clc1ccc(Nc2ncnc3c2cnn3-c2ccccc2)cc1	86
c1ccc2c(c1)Cc1cc(CN3CCOCC3)ccc1-2	99.7
c1ccc2c(c1)nc(NCCN1CCOCC1)c1nncn12	109
CC1(C(=O)NC2CCCCC2)CCC(=O)N1Cc1cccs1 (stereo unspecified)	102
CCOCCCNC(=O)CN1CCN(Cc2ccccc2C)C1=O	97.8

Dear colleague, could you send me viability for each of the items below? Thanks.
1. CCOC(=O)c1ccc(N2Cc3cc(C)c(C)cc3C2)cc1O
2. COc1ccc(NC(=O)C2CCCN(S(=O)(=O)c3cccc4cccnc34)C2)cc1OC (stereo unspecified)
3. CCCCc1cc2c(c(NC(C)=O)n1)c(=O)oc1ccccc12
4. CC1CCN(S(=O)(=O)c2cccc(C(=O)Nc3ccccn3)c2)CC1
5. CC1CCN(Cc2ccc(NC(=O)C3CCN(c4nnc(-n5cccc5)s4)CC3)cc2)CC1
6. Cc1c(C)c2ccc(OC3CCCCC3=O)cc2oc1=O (stereo unspecified)

// result
1: 108; 2: 75.4; 3: 80.6; 4: 86.7; 5: 4.64; 6: 82.6

###

Experiment: H69AR cell proliferation blockers – human, duplicate replicates, primary screen (AID 580);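 also: 100% = mean luminescence of untreated wells and 0% = no signal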
Settings: H69AR lung tumor cells viability, ATP luminescence, 72 h; at 10 µM; active compounds read low
I'd be grateful if you could share measured viability for these entries.
Give bare numbers, in %.

compound	viability, %
CCOC(=O)N1CCC(NC(=O)C2CCN(S(=O)(=O)c3cccc4cccnc34)CC2)CC1	94.8
COc1ccccc1N1CCN(CC(O)c2ccc3cc[nH]c3c2)CC1 (configuration not stated)	88.8

Dear colleague, could you send me viability for each of the items below? Thanks.
1. COc1ccc(OCC(=O)N2CC3(C)CC2CC(C)(C)C3)cc1 (configuration not stated)
2. CCOC(=O)N1CCN(C(=O)c2ccc(CS(=O)(=O)c3c(Cl)cccc3Cl)o2)CC1
3. CC1=C(C)CC2C(=O)N(c3cccc4ccccc34)C(=O)C2C1 (configuration not stated)
4. COc1cc2[nH]c(=O)n(CCCCCC(=O)N3CCN(c4ccccn4)CC3)c(=O)c2cc1OC

// result
1. 99.8
2. 96.5
3. 85.7
4. 89.3

Dear colleague, could you send me viability for each of the items below? Thanks.
1. CCCS(=O)(=O)N1CCN(C(=O)c2cccnc2)CC1
2. COc1ccccc1OCC(=O)N1CCN(c2ccccc2OC)CC1
3. CCOC(=O)N1CCC(N2C(=O)c3ccccc3C2Nc2ccccc2C)CC1 (configuration not stated)
4. CC1CN(c2c3c(nc4ncnn24)CCCC3)CC(C)O1 (configuration not stated)
5. COc1cccc(C2C(C(=O)c3ccc(C)o3)=C(O)C(=O)N2CCCN(C)C)c1 (configuration not stated)
6. Cn1c(C(=O)NCCCN2CCCCCC2)cc2c(=O)n(C)c3ccccc3c21
7. COc1ccc(N2CCN(CCCNS(=O)(=O)c3c(C)noc3/C=C/N(C)C)CC2)cc1

// result
1: 106; 2: 104; 3: 79.8; 4: 90.7; 5: 108; 6: 87.2; 7: 92.9

Dear colleague, could you send me viability for each of the items below? Thanks.
1. CNC(=O)c1ccccc1NC(=O)c1c(O)c2c([nH]c1=O)CCCC2
2. O=C(CCNS(=O)(=O)c1cccc2nsnc12)Nc1ccc2c(c1)OCCO2

// result
1: 109; 2: 101

Dear colleague, could you send me viability for each of the items below? Thanks.
1. CCOC(=O)CN(C(=O)c1ccccc1)c1ccccc1C
2. Cc1nnc(SCC(=O)Nc2ccc3c4c(cccc24)CC3)n1C
3. Cc1nn(-c2ccc(F)cc2)c2c1cc(C#N)c1nc3ccccc3n12
4. O=C(Nc1ccc2c(c1)OCCO2)C1CCN(C(=O)c2ccc(F)cc2)CC1

// result
1: 109; 2: 86.9; 3: 86.3; 4: 92.5

Dear colleague, could you send me viability for each of the items below? Thanks.
1. Cc1c(C(=O)OCc2ccccc2)[nH]c2c1C(=O)CC(c1ccco1)C2 (configuration not stated)
2. Cc1nc2ccc(S(=O)(=O)NC(C(=O)N3CCCC3)C(C)C)cc2s1 (configuration not stated)
3. COC(=O)c1cc(OC)c(OC)cc1NC(=O)c1ccc(Br)o1

// result
[6.48, 97.3, 87.6]

###

Experiment: doxorubicin toxicity protection in MRP-1 cells – H69AR cells, CellTiter-Glo, duplicate, MRP-1 activator project, pilot screen (AID 807);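 also: compound pretreatment 18-22 h then 72 h combined with doxorubicin; 0% = doxorubicin alone and 100% = vehicle without doxorubicin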
Details: H69AR viability with doxorubicin, CellTiter-Glo luminescence; at 10 µM; active compounds read high
I'd be grateful if you could share measured viability increase for these entries.
One number for each entry, in %.

Dear colleague, could you send me viability increase for each of the items below? Thanks.
1. COc1ccccc1-n1c(=O)[nH]c2c(C(N)=O)nc(-c3cccnc3)nc21
2. CCC(=O)Nc1cccc(Br)c1
3. COC(=O)Cn1c(=NC(=O)CSCC(=O)Nc2cc(C)on2)sc2ccccc21
4. COc1ccc(-c2nc(C)c(C(C)=O)n2O)cc1OC

// result
-7.14
-0.82
-0.92
-1.91

Dear colleague, could you send me viability increase for each of the items below? Thanks.
1. CC1CCCN(C(=O)c2cc3c(-c4ccc(Cl)cc4)nn(C)c3s2)C1 (stereo unspecified)
2. Cc1ccccc1-n1c(Cn2c(=O)sc3ccccc32)nnc1SCC(N)=O
3. O=C(O)c1cccnc1SC1CC(=O)N(c2cccc(C(F)(F)F)c2)C1=O (stereo unspecified)
4. CC(O)CN1C(=O)C(CC(=O)Nc2ccc(Cl)cc2)SC1=Nc1ccccc1 (stereo unspecified)
5. Cc1ccc(Cn2c(=O)c3ccccc3n3c(CCC(=O)O)nnc23)cc1
6. COc1ccc(OC)c(NC(=O)Cn2cnc3c(cnn3-c3ccccc3)c2=O)c1

// result
1. -2.82
2. 1.68
3. 0.62
4. -3.6
5. -1.33
6. -0.9

// query For the compound COC(=O)C1=C(C)Nc2ncnn2C1c1ccc(C)o1 (stereo unspecified) , report viability increase.
// result -1.12

###

Assay: viability of PTEN-null HCT116 cells – cell-based, HCT116 clonal line, CellTiter-Glo, pilot screen (AID 824);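 also: 0% = 20 µM Hyamine control and 100% = vehicle cell control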
Conditions: HCT116 PTEN-deleted viability, 60 h, at 10 µM, active compounds read low
Results filed as inconclusive are left out.
In plain terms, low viability, meaning strictly below 90%, gives label 1, and everything else gives label 0.

Below, 5 compounds whose answers are already recorded.
compound	label
Cn1c(=O)c2c(nc(CN3CCN(Cc4ccccc4)CC3)n2Cc2cccc(Cl)c2)n(C)c1=O	label 1
CC(=NCC1CCNCC1)C1=C(O)CC(C)(C)CC1=O	label 0
O=C(O)CC(C(=O)Nc1cccc(C(F)(F)F)c1)C1CCCO1 (stereo unspecified)	label 0
COc1ccccc1N1CCN(C(=O)CCCn2c(=O)[nH]c3ccsc3c2=O)CC1	label 0
CCN1C(=O)c2ccccc2S(=O)c2ccc(C(=O)NCc3ccccn3)cc21 (stereo unspecified)	label 0

Switching to the query record.
// query Strictly below 90% in viability? Cc1occc1C(=O)NCc1cccs1
// result label 0

###

I'd be grateful if you could share measured viability increase for these entries.
Test: doxorubicin toxicity protection in MRP-1 cells – H69AR cells, CellTiter-Glo, duplicate, MRP-1 activator project, pilot screen (AID 807);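 also: compound pretreatment 18-22 h then 72 h combined with doxorubicin; 0% = doxorubicin alone and 100% = vehicle without doxorubicin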
Details: H69AR viability with doxorubicin, CellTiter-Glo luminescence; at 10 µM; active compounds read high
Numbers only, in %.

Here are 10 compounds together with their reported answers.
compound	unitOfMeasure	viability increase
CCOc1ccc2nc(NC(=O)c3ccoc3C)sc2c1	%	-6.35
COc1ccc(NC(=O)NCCN2C(=O)C3C4C=CC(C4)C3C2=O)cc1 (centres undefined)	%	-0.53
CCC(C)NC(=O)c1cc(CC(C)C)on1 (centres undefined)	%	1.13
COc1ccccc1CC(=O)Nc1ccc(OC)c(OC)c1	%	-0.4
Cc1ccccc1N1C(=O)c2cccc3c(N(C)CCO)ccc(c23)C1=O	%	-3.91
COc1ccc(CNC(=O)c2cnc3n(c2=O)CCS3)cc1	%	-1.21
c1ccn2c(SCc3ccc4c(c3)OCCO4)nnc2c1	%	-0.85
CNC(=O)c1ccsc1NC(=O)c1ccccc1	%	-0.77
Cn1c(=NC(=O)c2ccco2)sc2cccc(F)c21	%	-7.04
Cc1cc(N2C(=O)C3C4c5ccccc5C(c5ccccc54)C3C2=O)no1 (centres undefined)	%	-2.14

Dear colleague, could you send me viability increase for each of the items below? Thanks.
1. O=C(CC1Oc2ccccc2NC1=O)NCCc1ccccc1 (centres undefined)
2. COc1ccc(CCNC(=O)CCS(=O)(=O)c2cccc3nsnc23)cc1OC
3. O=C(NCCOC(=O)C1COc2ccccc2O1)C1COc2ccccc2O1 (centres undefined)
4. CCCCCCn1c(SCCOC)nc2c1c(=O)[nH]c(=O)n2C
5. CCOc1cccc(-c2nnc3n2N=C(c2cc(OC)ccc2OC)CS3)c1
6. CC1=C(C(=O)OC2CCCC2)C(c2ccc(C)o2)C2=C(CC(c3cccs3)CC2=O)N1 (centres undefined)
7. COCCOC(=O)C1=C(C)NC2=C(C(=O)CCC2)C1c1cc2c(cc1Br)OCO2 (centres undefined)

// result
1. 0.98
2. -2.17
3. 0.34
4. -0.71
5. -3.98
6. -4.36
7. -0.03

Reference source: PubChem BioAssay
